Reported melting point values for a set of compounds
readoutType: melting point

>>> assayvalue("COC(=O)c1[nH]c2c(C)ccc(C)c2c1-c1nc2ccccc2s1")
"193 to 194 °C"
>>> assayvalue("Nc1cnccc1-c1ccc(Cl)cc1")
"144 to 146 °C"
>>> assayvalue("CC(C)(C)C(=O)C(O)NC(=O)c1ccc(Cl)cc1 (stereo not drawn)")
"130 °C"

---

readoutType: melting point

>>> assayvalue("O=C(N1Cc2ccccc2Nc2ccccc21)C(F)(F)F")
"140 to 141 °C"
>>> assayvalue("COc1cc(Nc2c(C#N)cnc3cc(-c4cc5ccccc5o4)ccc23)c(Cl)cc1Cl")
"276 to 277 °C"
>>> assayvalue("O=C(Nc1ccc(Cl)cc1)N[C@H]1C[C@H](C(=O)O)Nc2cc(Cl)cc(Cl)c21 (relative stereo)")
"199 to 200 °C"
